# SYSTEM_UNDER_TEST: Pseudomonas fluorescens HPPD variant C024H11, SEQ ID NO:5 (Pseudomonas sp., UniProt P80064, G335W/P214L)
# Construct: C024H11; […]
# Sequence (P80064 other isoform, or with tags, fused parts or gaps with the stated changes): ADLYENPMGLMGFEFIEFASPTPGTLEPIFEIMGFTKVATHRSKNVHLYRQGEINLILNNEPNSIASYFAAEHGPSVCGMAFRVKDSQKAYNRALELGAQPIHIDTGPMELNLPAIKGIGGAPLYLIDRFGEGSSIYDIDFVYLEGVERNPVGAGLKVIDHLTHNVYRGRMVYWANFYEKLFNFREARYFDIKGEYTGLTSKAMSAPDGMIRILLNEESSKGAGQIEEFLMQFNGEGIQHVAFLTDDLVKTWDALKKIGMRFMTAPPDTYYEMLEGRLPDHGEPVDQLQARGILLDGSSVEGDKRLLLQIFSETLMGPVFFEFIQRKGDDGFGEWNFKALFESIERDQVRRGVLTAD
# PROTOCOL_DETAILS: biochemical
MEASUREMENT_LABEL: IC50
Write the quantity with the unit trailing the number.

COMPOUND	IC50
CS(=O)(=O)c1cc(C(F)(F)F)ccc1C(=O)C(C#N)C(=O)C1CC1 (centres unmarked)	100 µM

Now consider the entry below.
# input Item under review: CS(=O)(=O)c1ccc(C(=O)C2C(=O)CCCC2=O)c(Cl)c1COCC(F)(F)F . Reported IC50?
# output 15.8 µM

###

# SYSTEM_UNDER_TEST: Pseudomonas fluorescens HPPD variant CO212f3, SEQ ID NO:10 (Pseudomonas sp., UniProt P80064, A339V/E334G/G335W)
# Construct: CO212f3; […]; Ala + His6 directly after the start Met (N); made in house; host or cells: E. coli
# Sequence (P80064 other isoform, or with tags, fused parts or gaps with the stated changes): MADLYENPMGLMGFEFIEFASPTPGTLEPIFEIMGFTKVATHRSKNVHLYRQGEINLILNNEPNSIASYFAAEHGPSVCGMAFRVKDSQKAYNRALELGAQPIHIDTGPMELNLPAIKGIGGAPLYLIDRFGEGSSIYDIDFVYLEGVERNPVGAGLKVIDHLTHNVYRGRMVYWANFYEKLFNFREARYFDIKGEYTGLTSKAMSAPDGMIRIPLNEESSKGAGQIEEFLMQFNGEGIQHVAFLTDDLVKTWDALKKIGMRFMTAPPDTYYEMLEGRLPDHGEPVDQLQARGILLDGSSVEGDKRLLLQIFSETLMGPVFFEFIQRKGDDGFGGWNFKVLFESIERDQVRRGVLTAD
# PROTOCOL_DETAILS: biochemical
MEASUREMENT_LABEL: pIC50
Quick note: pIC50 means taking -log10 of the concentration in moles per liter.

# input Item under review: CS(=O)(=O)c1ccc(C(=O)C2C(=O)CCCC2=O)c(Cl)c1COCC(F)(F)F . Reported pIC50?
# output 4.80

###

# SYSTEM_UNDER_TEST: Pseudomonas aeruginosa (strain ATX22717) HPPD Axmi305H, native, SEQ ID NO:57 (Pseudomonas aeruginosa, UniProt Q9I576)
# PROTOCOL_DETAILS: HPPD coupling assay, Axmi305H
MEASUREMENT_LABEL: pIC50
Quick note: pIC50 means taking -log10 of the concentration in moles per liter.

# input Item under review: CS(=O)(=O)c1ccc(C(=O)C2C(=O)CCCC2=O)c([N+](=O)[O-])c1 . Reported pIC50?
# output 6.70

###

# SYSTEM_UNDER_TEST: Pseudomonas fluorescens HPPD variant PfHPPDEvo36 (serine for glutamic acid at 335, serine for tryptophan at 336, threonine for lysine at 339, glutamine for alanine at 340 relative to PfG336W), SEQ ID NO:7 (Pseudomonas sp., UniProt P80064, A339Q/E334S/G335S/K338T)
# Sequence (P80064 other isoform, or with tags, fused parts or gaps with the stated changes): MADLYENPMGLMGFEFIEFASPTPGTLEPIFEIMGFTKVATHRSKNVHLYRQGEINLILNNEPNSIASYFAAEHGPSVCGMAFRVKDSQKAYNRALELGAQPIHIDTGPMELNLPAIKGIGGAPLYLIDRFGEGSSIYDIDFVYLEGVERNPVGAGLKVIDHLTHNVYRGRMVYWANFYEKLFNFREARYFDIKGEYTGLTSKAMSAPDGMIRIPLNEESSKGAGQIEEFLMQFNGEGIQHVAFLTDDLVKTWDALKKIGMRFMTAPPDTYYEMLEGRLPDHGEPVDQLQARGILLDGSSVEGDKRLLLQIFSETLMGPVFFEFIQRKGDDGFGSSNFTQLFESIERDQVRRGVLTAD
# PROTOCOL_DETAILS: biochemical
MEASUREMENT_LABEL: IC50

# input Item under review: CS(=O)(=O)c1cc(C(F)(F)F)ccc1C(=O)C(C#N)C(=O)C1CC1 (stereo not shown) . Reported IC50?
# output 31.6 µM

###

# SYSTEM_UNDER_TEST: Pseudomonas fluorescens HPPD variant PfHPPDEvo40, SEQ ID NO:8 (Pseudomonas sp., UniProt P80064, A339E/E334P/G335S)
# Sequence (P80064 other isoform, or with tags, fused parts or gaps with the stated changes): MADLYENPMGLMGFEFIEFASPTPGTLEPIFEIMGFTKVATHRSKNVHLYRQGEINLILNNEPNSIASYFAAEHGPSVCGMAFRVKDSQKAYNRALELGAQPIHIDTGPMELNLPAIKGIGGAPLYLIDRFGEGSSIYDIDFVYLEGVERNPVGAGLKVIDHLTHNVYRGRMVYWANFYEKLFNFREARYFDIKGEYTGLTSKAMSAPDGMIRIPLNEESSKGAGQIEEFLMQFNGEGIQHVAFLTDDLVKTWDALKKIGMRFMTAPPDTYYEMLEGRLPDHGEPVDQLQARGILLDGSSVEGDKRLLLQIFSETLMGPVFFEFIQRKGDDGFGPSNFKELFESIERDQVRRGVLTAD
# PROTOCOL_DETAILS: HPPD inhibition, HPLC based assay, PfHPPDEvo40
MEASUREMENT_LABEL: pIC50
Quick note: pIC50 means taking -log10 of the concentration in moles per liter.

# input Item under review: CS(=O)(=O)c1ccc(C(=O)C2C(=O)CCCC2=O)c(Cl)c1COCC(F)(F)F [Tembotrione] . Reported pIC50?
# output 5.00
